# TESTED_SYSTEM: CD63 on cells (human) (UniProt P08962)
# Sequence (P08962 2-238): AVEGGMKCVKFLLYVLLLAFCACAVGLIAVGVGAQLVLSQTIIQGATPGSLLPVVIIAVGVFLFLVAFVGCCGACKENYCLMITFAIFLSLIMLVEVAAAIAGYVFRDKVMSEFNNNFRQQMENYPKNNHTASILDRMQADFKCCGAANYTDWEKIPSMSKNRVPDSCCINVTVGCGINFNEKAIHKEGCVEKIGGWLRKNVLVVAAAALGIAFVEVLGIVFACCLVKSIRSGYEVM
# MEASUREMENT_DESCRIPTION: cell-based or functional assay
READOUT_NAME: IC50 of cytotoxicity, SK-OV-3 cells (CellTiter-GLO, 4 days) (µg/mL)
Answers are plain numbers, in µg/mL.

Past entries and their recorded results:
Per the record, bsCD63xb12-Duo3 with CD63 variant P72H (bispecific antibody, part only; not given: b12 control arm, V domains shown, part only) VH: EVQLQQSGPELVKPGASVKMSCKASGYTFTSYVMHWVRQTPGQGLEWIGYITHYNDGTKYNEKFKGKATLTSDKSSSTAYMELSSLTSEDSAVYYCVGGDNYYYAMDYWGQGTSVTVSAA VL: NIMVTQSPSSLAVSAGEKVTMSCKSSQSVLYSSNQKNYLAWYQQKPGQSPKLLIYWASTRVSGVPDRFTGSGSGTDFTLTISRVQAEDLAVYYCHQYFSSFTFGSGTKLEIKRT has IC50 of cytotoxicity, SK-OV-3 cells (CellTiter-GLO, 4 days) of 1.72

Per the record, bsCD63xb12-Duo3 with CD63 variant Y79H (bispecific antibody, part only; not given: b12 control arm, V domains shown, part only) VH: EVQLQQSGPELVKPGASVKMSCKASGYTFTSYVMHWVRQTPGQGLEWIGYITPYNDGTKHNEKFKGKATLTSDKSSSTAYMELSSLTSEDSAVYYCVGGDNYYYAMDYWGQGTSVTVSAA VL: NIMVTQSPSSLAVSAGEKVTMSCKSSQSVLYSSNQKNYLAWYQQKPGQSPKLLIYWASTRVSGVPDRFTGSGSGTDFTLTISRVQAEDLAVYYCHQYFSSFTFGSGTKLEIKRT has IC50 of cytotoxicity, SK-OV-3 cells (CellTiter-GLO, 4 days) of 0.93

Query binder follows.
Per the record, bsCD63xb12-Duo3 with CD63 variant Y121H (bispecific antibody, part only; not given: b12 control arm VH and VL, V domains shown, part only) VH: EVQLQQSGPELVKPGASVKMSCKASGYTFTSYVMHWVRQTPGQGLEWIGYITPYNDGTKYNEKFKGKATLTSDKSSSTAYMELSSLTSEDSAVYYCVGGDNHYYAMDYWGQGTSVTVSAA VL: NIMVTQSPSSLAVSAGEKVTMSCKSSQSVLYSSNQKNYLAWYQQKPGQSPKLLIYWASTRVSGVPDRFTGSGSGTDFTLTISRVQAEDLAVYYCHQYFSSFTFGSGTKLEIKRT has IC50 of cytotoxicity, SK-OV-3 cells (CellTiter-GLO, 4 days) of 5.46
